B1: PDLIM4 (parent)
chain: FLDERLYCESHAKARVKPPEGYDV

Variants of: B1
Experiment: protein stability index of a GFP-peptide fusion (GPS, HEK-293T) (PSI 1-6); higher = more stable;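 further: lentivirally expressed fusions sorted by FACS into six bins by GFP to DsRed ratio, PSI derived from sequencing read proportions per bin multiplied by bin number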
Conditions: c terminus: a fixed tail appended
property_measured: protein stability index

> print(dat)
    change        property.measured  observed
 1    K17N  protein stability index      1.87
 2    G21K  protein stability index      1.63
 3     F1L  protein stability index      3.89
 4    S10T  protein stability index      1.79
 5    A14G  protein stability index       2.7
 6     C8F  protein stability index       2.3
 7     E9L  protein stability index      2.34
 8    S10G  protein stability index      1.97
 9    E20L  protein stability index       1.1
10     C8Q  protein stability index      2.44
11     Y7F  protein stability index      2.79
12     F1K  protein stability index      4.43
13     Y7A  protein stability index      2.63
14    A12G  protein stability index      2.68
15    V16P  protein stability index      1.64
16    H11C  protein stability index      1.04
17     F1Q  protein stability index      4.58
18    R15W  protein stability index      3.92
19    Y22E  protein stability index      2.43
20    Y22R  protein stability index      2.71
21     D3C  protein stability index      3.79
22    V16S  protein stability index      3.79
23     L6R  protein stability index      1.45
24    D23F  protein stability index      1.73
25    P19I  protein stability index      1.86
26    Y22N  protein stability index      2.65
27    P18V  protein stability index      1.96
28     R5E  protein stability index      2.42
29    A14K  protein stability index      1.07
30    S10E  protein stability index       2.1
31    R15A  protein stability index      2.13
32    K13I  protein stability index      2.71
33     R5M  protein stability index      2.33
34    R15T  protein stability index      1.67
35    V16Q  protein stability index      1.22
36    D23C  protein stability index      1.65
37    E20R  protein stability index       2.7
38    E20T  protein stability index      2.26
39    K13M  protein stability index      2.85
40    R15V  protein stability index      1.77
41     R5D  protein stability index      2.11
42    P19K  protein stability index      2.31
43     L6D  protein stability index      4.54
44    K13N  protein stability index      1.36
45    D23S  protein stability index      2.85
46    K17P  protein stability index      2.25
